Provenance of the data: paper PMC5418449

Test system: 005A
Design: MTT antiproliferation assay, absorbance at 570 nm, human cancer cell line panel
Conditions: 3-day MTT; inhibitor; read-out: Table S1. IC50 of CCT271850 determined by MTT and clonogenic assays (CA). / All cell lines were tested at least 2 times. / 3-day MTT
reported_property: IC50 (nM)
The answer is to be given in nM; state only the numeric part.

IC50 for COc1cc(-c2cnn(C)c2)ccc1Nc1ncc2ccnc(N[C@@H](C)C(C)(C)C)c2n1 [34h, CCT271850] ? 940

###

Tested on: IGROV1
Parameters: 14-day clonogenic growth inhibition assay, human cancer cell line panel
Details: 14-day clonogenic assay; inhibitor; read-out: Table S1. IC50 of CCT271850 determined by MTT and clonogenic assays (CA). / All cell lines were tested at least 2 times. / 14-day CA
reported_property: pIC50
# pIC50: negative log10 of molar concentration; output just the value

Report pIC50 for COc1cc(-c2cnn(C)c2)ccc1Nc1ncc2ccnc(N[C@@H](C)C(C)(C)C)c2n1 [34h, CCT271850] please. 7.32

###

Tested on: Kuramochi
Design: 14-day clonogenic growth inhibition assay, human cancer cell line panel
Conditions: 14-day clonogenic assay; inhibitor; read-out: Table S1. IC50 of CCT271850 determined by MTT and clonogenic assays (CA). / All cell lines were tested at least 2 times. / 14-day CA
reported_property: IC50

Report IC50 for COc1cc(-c2cnn(C)c2)ccc1Nc1ncc2ccnc(N[C@@H](C)C(C)(C)C)c2n1 [34h, CCT271850] please. 34 nM

###

Tested on: SW626
Design: 14-day clonogenic growth inhibition assay, human cancer cell line panel
Conditions: 14-day clonogenic assay; inhibitor; read-out: Table S1. IC50 of CCT271850 determined by MTT and clonogenic assays (CA). / All cell lines were tested at least 2 times. / 14-day CA
reported_property: IC50 (nM)
Output spec: scalar in nM, unitless text.

Tell me reported IC50 for COc1cc(-c2cnn(C)c2)ccc1Nc1ncc2ccnc(N[C@@H](C)C(C)(C)C)c2n1 [34h, CCT271850] , tested with SW626. 32

###

Test system: 011B
Set-up: 14-day clonogenic growth inhibition assay, human cancer cell line panel
Conditions: 14-day clonogenic assay; inhibitor; read-out: Table S1. IC50 of CCT271850 determined by MTT and clonogenic assays (CA). / All cell lines were tested at least 2 times. / 14-day CA
reported_property: pIC50
Keep in mind that pIC50 stands for -log10 of concentration in molar terms.

Which pIC50 is listed for COc1cc(-c2cnn(C)c2)ccc1Nc1ncc2ccnc(N[C@@H](C)C(C)(C)C)c2n1 [34h, CCT271850] ? 7.68

###

Test system: PATU-8988S
Design: 14-day clonogenic growth inhibition assay, human cancer cell line panel
Conditions: 14-day clonogenic assay; inhibitor; read-out: Table S1. IC50 of CCT271850 determined by MTT and clonogenic assays (CA). / All cell lines were tested at least 2 times. / 14-day CA
reported_property: IC50 (nM)
Reply numerically in nM, unit not repeated.

Give its IC50 value. Item: COc1cc(-c2cnn(C)c2)ccc1Nc1ncc2ccnc(N[C@@H](C)C(C)(C)C)c2n1 [34h, CCT271850] 110

###

System: Suit-2
Parameters: MTT antiproliferation assay, absorbance at 570 nm, human cancer cell line panel
Conditions: 3-day MTT; inhibitor; read-out: Table S1. IC50 of CCT271850 determined by MTT and clonogenic assays (CA). / All cell lines were tested at least 2 times. / 3-day MTT
reported_property: IC50 (nM)
Your answer is read as nM, so omit the unit and give the number.

For the compound shown here, COc1cc(-c2cnn(C)c2)ccc1Nc1ncc2ccnc(N[C@@H](C)C(C)(C)C)c2n1 [34h, CCT271850] , give the reported IC50. 435

###

Test system: CFPAC-1
Parameters: MTT antiproliferation assay, absorbance at 570 nm, human cancer cell line panel
Settings: 3-day MTT; inhibitor; read-out: Table S1. IC50 of CCT271850 determined by MTT and clonogenic assays (CA). / All cell lines were tested at least 2 times. / 3-day MTT
reported_property: pIC50
# reply with the number alone; pIC50 is -log10 of concentration in mol/L

Looking for the measured pIC50 of COc1cc(-c2cnn(C)c2)ccc1Nc1ncc2ccnc(N[C@@H](C)C(C)(C)C)c2n1 [34h, CCT271850] , can you help? 6.04

###

Test system: PT45
Set-up: MTT antiproliferation assay, absorbance at 570 nm, human cancer cell line panel
Conditions: 3-day MTT; inhibitor; read-out: Table S1. IC50 of CCT271850 determined by MTT and clonogenic assays (CA). / All cell lines were tested at least 2 times. / 3-day MTT
reported_property: IC50
Numeric answer plus unit only.

So what's the measured IC50 for this one? COc1cc(-c2cnn(C)c2)ccc1Nc1ncc2ccnc(N[C@@H](C)C(C)(C)C)c2n1 [34h, CCT271850] 960 nM

###

Test system: OVCAR4
Set-up: 14-day clonogenic growth inhibition assay, human cancer cell line panel
Details: 14-day clonogenic assay; inhibitor; read-out: Table S1. IC50 of CCT271850 determined by MTT and clonogenic assays (CA). / All cell lines were tested at least 2 times. / 14-day CA
reported_property: pIC50
Reminder that pIC50 is minus the log10 of a molar concentration.

What measured pIC50 goes with COc1cc(-c2cnn(C)c2)ccc1Nc1ncc2ccnc(N[C@@H](C)C(C)(C)C)c2n1 [34h, CCT271850] ? 7.21

###

Test system: O13
Design: 14-day clonogenic growth inhibition assay, human cancer cell line panel
Details: 14-day clonogenic assay; inhibitor; read-out: Table S1. IC50 of CCT271850 determined by MTT and clonogenic assays (CA). / All cell lines were tested at least 2 times. / 14-day CA
reported_property: pIC50
To interpret pIC50, take it as minus log10 of a concentration measured in moles per litre.

Entry COc1cc(-c2cnn(C)c2)ccc1Nc1ncc2ccnc(N[C@@H](C)C(C)(C)C)c2n1 [34h, CCT271850] has what pIC50? 7.68

###

Tested on: A2780
Design: MTT antiproliferation assay, absorbance at 570 nm, human cancer cell line panel
Settings: 3-day MTT; inhibitor; read-out: Table S1. IC50 of CCT271850 determined by MTT and clonogenic assays (CA). / All cell lines were tested at least 2 times. / 3-day MTT
reported_property: pIC50
Scale: pIC50 equals -log10([C]), with [C] in mol/L.

Any idea what its pIC50 is? The molecule is COc1cc(-c2cnn(C)c2)ccc1Nc1ncc2ccnc(N[C@@H](C)C(C)(C)C)c2n1 [34h, CCT271850] 6.86

###

Test system: Suit-2
Set-up: 14-day clonogenic growth inhibition assay, human cancer cell line panel
Settings: 14-day clonogenic assay; inhibitor; read-out: Table S1. IC50 of CCT271850 determined by MTT and clonogenic assays (CA). / All cell lines were tested at least 2 times. / 14-day CA
reported_property: pIC50
Quick note: pIC50 means taking -log10 of the concentration in moles per liter.

// query pIC50 value for entry COc1cc(-c2cnn(C)c2)ccc1Nc1ncc2ccnc(N[C@@H](C)C(C)(C)C)c2n1 [34h, CCT271850] 7.06

###

Tested on: OVCAR5
Set-up: MTT antiproliferation assay, absorbance at 570 nm, human cancer cell line panel
Conditions: 3-day MTT; inhibitor; read-out: Table S1. IC50 of CCT271850 determined by MTT and clonogenic assays (CA). / All cell lines were tested at least 2 times. / 3-day MTT
reported_property: pIC50
Formally, pIC50 is defined as -log10 of the concentration c, with c in mol/L.

What value of pIC50 has been recorded for this entry: COc1cc(-c2cnn(C)c2)ccc1Nc1ncc2ccnc(N[C@@H](C)C(C)(C)C)c2n1 [34h, CCT271850] 6.14

###

Test system: OVCAR8
Set-up: MTT antiproliferation assay, absorbance at 570 nm, human cancer cell line panel
Settings: 3-day MTT; inhibitor; read-out: Table S1. IC50 of CCT271850 determined by MTT and clonogenic assays (CA). / All cell lines were tested at least 2 times. / 3-day MTT
reported_property: pIC50
Interpret pIC50 as the negative base-10 log of the concentration measured in mol/L.

Give OVCAR8 pIC50 for COc1cc(-c2cnn(C)c2)ccc1Nc1ncc2ccnc(N[C@@H](C)C(C)(C)C)c2n1 [34h, CCT271850] 5.91

###

System: OAW42
Parameters: 14-day clonogenic growth inhibition assay, human cancer cell line panel
Settings: 14-day clonogenic assay; inhibitor; read-out: Table S1. IC50 of CCT271850 determined by MTT and clonogenic assays (CA). / All cell lines were tested at least 2 times. / 14-day CA
reported_property: IC50 (nM)
Quick note: give the figure in nM, leave out the unit.

GET /values?readout=IC50&item= COc1cc(-c2cnn(C)c2)ccc1Nc1ncc2ccnc(N[C@@H](C)C(C)(C)C)c2n1 [34h, CCT271850] 57
